# target of assay: Nav 1.7 (Homo sapiens (Human))
# Sequence (Q15858 whole entry): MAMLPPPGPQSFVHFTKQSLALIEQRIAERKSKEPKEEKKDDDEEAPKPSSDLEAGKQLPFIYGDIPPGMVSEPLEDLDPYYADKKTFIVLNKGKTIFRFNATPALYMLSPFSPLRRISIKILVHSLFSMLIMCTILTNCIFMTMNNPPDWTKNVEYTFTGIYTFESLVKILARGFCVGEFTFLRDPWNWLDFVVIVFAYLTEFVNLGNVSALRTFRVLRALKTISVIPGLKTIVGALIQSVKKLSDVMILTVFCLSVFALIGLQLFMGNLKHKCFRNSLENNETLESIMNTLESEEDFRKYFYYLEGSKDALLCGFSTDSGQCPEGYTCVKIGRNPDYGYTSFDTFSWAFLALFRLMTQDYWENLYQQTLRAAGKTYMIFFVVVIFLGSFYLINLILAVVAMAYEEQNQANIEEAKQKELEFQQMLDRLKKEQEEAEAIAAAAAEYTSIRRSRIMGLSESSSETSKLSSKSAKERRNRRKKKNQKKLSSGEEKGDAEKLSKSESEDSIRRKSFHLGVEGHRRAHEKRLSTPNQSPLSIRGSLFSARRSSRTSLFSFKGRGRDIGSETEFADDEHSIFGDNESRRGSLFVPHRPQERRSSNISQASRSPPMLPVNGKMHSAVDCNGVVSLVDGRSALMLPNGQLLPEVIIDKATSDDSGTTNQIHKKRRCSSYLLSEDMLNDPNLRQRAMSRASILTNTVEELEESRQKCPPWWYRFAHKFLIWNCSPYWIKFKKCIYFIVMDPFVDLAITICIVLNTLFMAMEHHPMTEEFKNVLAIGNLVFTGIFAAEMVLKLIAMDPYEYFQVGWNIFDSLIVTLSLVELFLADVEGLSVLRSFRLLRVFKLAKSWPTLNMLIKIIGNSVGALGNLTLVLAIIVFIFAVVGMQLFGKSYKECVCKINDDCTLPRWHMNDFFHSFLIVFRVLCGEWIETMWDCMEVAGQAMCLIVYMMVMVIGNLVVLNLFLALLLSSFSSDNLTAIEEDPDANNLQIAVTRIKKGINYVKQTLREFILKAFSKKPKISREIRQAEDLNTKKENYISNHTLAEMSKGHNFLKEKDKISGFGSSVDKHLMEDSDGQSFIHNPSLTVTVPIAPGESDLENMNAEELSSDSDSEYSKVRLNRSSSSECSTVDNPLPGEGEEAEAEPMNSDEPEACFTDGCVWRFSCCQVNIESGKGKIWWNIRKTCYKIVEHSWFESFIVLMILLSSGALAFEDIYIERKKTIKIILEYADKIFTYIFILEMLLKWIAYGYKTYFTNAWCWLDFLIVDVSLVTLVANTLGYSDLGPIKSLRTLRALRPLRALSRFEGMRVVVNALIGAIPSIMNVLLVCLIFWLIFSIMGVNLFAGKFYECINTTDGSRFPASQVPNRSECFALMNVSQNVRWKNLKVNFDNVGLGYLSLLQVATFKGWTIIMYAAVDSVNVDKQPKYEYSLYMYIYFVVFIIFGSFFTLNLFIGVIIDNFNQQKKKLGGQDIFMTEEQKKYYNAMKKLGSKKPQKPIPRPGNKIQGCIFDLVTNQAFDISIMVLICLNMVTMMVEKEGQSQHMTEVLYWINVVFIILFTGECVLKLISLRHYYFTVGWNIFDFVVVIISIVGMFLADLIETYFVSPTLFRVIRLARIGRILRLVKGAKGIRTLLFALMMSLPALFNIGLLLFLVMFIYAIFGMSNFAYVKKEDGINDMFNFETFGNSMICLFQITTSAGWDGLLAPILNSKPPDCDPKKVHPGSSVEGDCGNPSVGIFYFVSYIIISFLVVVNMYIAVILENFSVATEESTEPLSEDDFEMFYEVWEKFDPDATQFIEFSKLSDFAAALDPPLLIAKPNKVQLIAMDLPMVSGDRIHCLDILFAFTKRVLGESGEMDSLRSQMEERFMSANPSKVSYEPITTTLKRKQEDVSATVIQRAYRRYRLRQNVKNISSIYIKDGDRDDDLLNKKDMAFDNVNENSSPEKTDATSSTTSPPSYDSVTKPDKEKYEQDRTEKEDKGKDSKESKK
# measurement description: in-vitro Nav 1.7 PX data
# Type: cell-based
# test context: in-vitro PX
# Lookup of reported IC50 keyed by entry

# compound, IC50 / nM
measured = [
    ("COc1cc(-c2cccc(F)c2)c(C#N)cc1-c1ncnc2cc(S(=O)(=O)Nc3nncs3)ccc12 [Example 241]", 69.1),
    ("COc1nc(N2CCC(F)(F)C2)c(Cl)cc1-c1nccc2cc(S(=O)(=O)Nc3nncs3)ccc12 [Example 237]", 336),
    ("N#CCOc1cc(-c2cccc(F)c2)ccc1-c1nccc2cc(S(=O)(=O)Nc3ccncn3)ccc12 [Example 208]", 230),
    ("COc1cc(-c2cccc(F)c2)c(Cl)cc1-c1ccnc2cc(S(=O)(=O)Nc3ccon3)ccc12 [Example 239]", 115),
    ("COc1cc(-c2ccc(C)c(F)c2)c(C#N)cc1-c1nccc2cc(S(=O)(=O)Nc3nncs3)ccc12 [Example 218]", 22.9),
    ("COc1cc(-c2cccc(C(F)(F)F)c2)c(C#N)cc1-c1ncnc2cc(S(=O)(=O)Nc3ccon3)ccc12 [Example 211]", 16.9),
    ("COc1cc(-c2cccc(F)c2)ccc1-c1ccnc2cc(S(=O)(=O)Nc3nncs3)ccc12 [Example 210]", 1050),
    ("COc1cc(-c2cccc(C(F)(F)F)c2)c(C#N)cc1-c1ncnc2cc(S(=O)(=O)Nc3nncs3)ccc12 [Example 226]", 11.6),
    ("COc1cc(-c2ccc(F)cc2)c(C#N)cc1-c1nccc2cc(S(=O)(=O)Nc3nncs3)ccc12 [Example 219]", 33.8),
    ("COc1cc(-c2cccc(F)c2)ccc1C1c2ccc(S(=O)(=O)Nc3nncs3)cc2CCN1C(C)=O (stereo not drawn) [Example 52]", 1690),
    ("COc1cc(-c2cccc(F)c2)c(Cl)cc1-c1nn(C)c(=O)c2cc(S(=O)(=O)Nc3nncs3)ccc12 [Example 215]", 82.3),
    ("COc1nc(N(C)C)c(Cl)cc1-c1nccc2cc(S(=O)(=O)Nc3nncs3)ccc12 [Example 242]", 1870),
    ("COc1cc(-c2cccc(F)c2)c(Cl)cc1-c1ncnc2cc(S(=O)(=O)Nc3ncccn3)ccc12 [Example 243]", 80.3),
    ("COc1cc(N2CC(F)(F)C2)c(C#N)cc1-c1nccc2cc(S(=O)(=O)Nc3nncs3)ccc12 [Example 24]", 1360),
    ("COc1cc(-c2ccc(F)c(C)c2)c(C#N)cc1-c1nccc2cc(S(=O)(=O)Nc3nncs3)ccc12 [Example 230]", 12.7),
]

Where these numbers come from: patent US9776995B2
